Test Name: basal 3T3-L1 adipocyte mitochondrial potential changes, profiling panel, cell-based, JC-1 fluorescence, 3T3-L1 adipocytes, 24 h, 100 nL compound (AID 1168); further: test concentration not given here
Run Conditions: JC-1 mitochondrial fluorescence, higher = more signal, called active from +8 up or from −8 down
Attribute: z-score

>  <Molecule>
CC1=C[C@@]2(CO)C(=O)[C@]3(CO3)[C@@H]1[C@H]1[C@]2(C)C=C(CO)C(=O)[C@]12CO2

>  <z-score>
-0.311

$$$$
>  <Molecule>
C=CCOC(=O)[C@H]1[C@@H]2C(=O)O[C@@H](c3ccccc3)[C@@H](c3ccccc3)N2[C@@H](c2ccc(OCCOC(=O)[C@@H]3C[C@@H]4C(=O)N5CCC[C@H]5C(=O)N4[C@@H]3c3ccc(O)cc3)cc2)[C@]12C(=O)Nc1ccc(I)cc12

>  <z-score>
0.88

$$$$
>  <Molecule>
C=C(COC)/C(=C/C[C@H](OC(C)=O)c1ccc(OCCO)cc1)c1cc(C(=O)OC)ccc1OC

>  <z-score>
1.57

$$$$
>  <Molecule>
CC(C)N1C(=O)c2ccccc2[C@@H](C(=O)NC2CC2)[C@@H]1c1ccc(CO)cc1

>  <z-score>
0.319

$$$$

---

System Name: Streptavidin (Streptomyces avidinii)
Test Name: streptavidin binders on small-molecule microarray, primary screen, artefact control for SMM compound annotation, biophysical, 635/667 nm fluorescence (AID 1147);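 further: signal reflects streptavidin binding to arrayed compounds as a control protein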
Run Conditions: streptavidin binding, higher = more signal
Parameter Measured: composite z-score

>  <Compound>
Cc1ccc(S[C@]2(C(=O)NCC(F)(F)F)CC(=O)N(Cc3ccccc3)[C@@H]2c2ccc(CO)cc2I)cc1

>  <Result Number>
-0.119

$$$$
>  <Compound>
O=C1OCC=C[C@H]2OC34C=CCN(c5ccc(Cl)cc5)C(=O)[C@H]3N(CCO)C(=O)[C@@H]4[C@@H]12 (some centres undefined)

>  <Result Number>
-1.02

$$$$
>  <Compound>
O=C1O[C@H](c2ccccc2)[C@H](c2ccccc2)N2[C@H]1[C@@H](C(=O)Nc1nc3ccccc3s1)[C@]1(C(=O)Nc3ccccc31)[C@H]2c1ccc(OCCO)cc1

>  <Result Number>
0.534

$$$$
>  <Compound>
O=C1c2ccccc2[C@](Cc2ccccc2I)(C(=O)NCC(F)(F)F)[C@H](c2ccc(CO)cc2)N1C1CCCCC1

>  <Result Number>
1.1

$$$$

---

Tested on: Human papillomavirus type 1a E7 protein (residues 1-88)
Test Name: HPV1a E7 small-molecule binders, primary screen, biochemical, small-molecule microarray, residues 1-88, 635 nm (AID 1129)
Run Conditions: small-molecule microarray binding, fluorescence 635 nm; higher = more signal
Parameter: composite z-score. Scope: all listed entries.

>  <Molecule>
Cc1ccc(S[C@]2(C(=O)NCC(F)(F)F)CC(=O)N(C3CCCCC3)[C@@H]2c2ccc(CO)cc2I)cc1

>  <composite z-score>
1.21

$$$$
>  <Molecule>
COC(=O)[C@@]1(Cc2ccc(F)cc2)[C@H]2c3cc(C(=O)N4CCCC4)n(CCN4CNCC4=O)c3C[C@H]2CN1C(=O)c1ccccc1

>  <composite z-score>
1.24

$$$$
>  <Molecule>
COCCOC(=O)N1C(=O)[C@@]2(c3cc(C#CC4=CCCCC4)ccc31)[C@H](c1ccccc1OCCO)N1[C@H](c3ccccc3)[C@H](c3ccccc3)OC(=O)[C@H]1[C@@H]2C(=O)N1CCCCCCC1

>  <composite z-score>
1.22

$$$$
>  <Molecule>
CCCCC(=C=CC[C@@H](O)c1ccccc1OCCO)C[C@@H](O)COCc1ccccc1

>  <composite z-score>
-0.399

$$$$
>  <Molecule>
NC(=O)NCC#Cc1ccc2c(c1)[C@]1(C(=O)N2)[C@H](C(=O)O)[C@H]2C(=O)O[C@H](c3ccccc3)[C@H](c3ccccc3)N2[C@@H]1c1ccc(OCCO)cc1

>  <composite z-score>
0.643

$$$$
>  <Molecule>
COc1cc(CO)cc(I)c1O[C@H]1C=C(C(=O)NCCO)C[C@@H](NCc2ccc(F)cc2)[C@@H]1O

>  <composite z-score>
0.822

$$$$
>  <Molecule>
Cc1ccc(S[C@]2(C(=O)O)CC(=O)N(C3Cc4ccccc4C3)[C@@H]2c2ccc(CO)cc2)cc1

>  <composite z-score>
0.246

$$$$
>  <Molecule>
O=C(NCc1ccccc1)[C@@H]1c2ccccc2C(=O)N(Cc2ccccc2C(F)(F)F)[C@H]1c1ccc(CO)cc1

>  <composite z-score>
0.334

$$$$
>  <Molecule>
CC(C)C(=C=CC[C@H](O)c1cccc(OCCO)c1)C[C@H](O)c1cc(Cl)cc(Cl)c1O

>  <composite z-score>
0.637

$$$$
>  <Molecule>
OCCCC1=CC(c2ccc(CN3CCCC3)cc2)N(Cc2sc3ccccc3c2Cl)CC1 (stereo not given)

>  <composite z-score>
1.07

$$$$
>  <Molecule>
O=C1O[C@H](c2ccccc2)[C@H](c2ccccc2)N2[C@H]1[C@@H](C(=O)O)[C@]1(C(=O)Nc3ccc(C#CC4=CCCCC4)cc31)[C@H]2c1ccc(O)cc1

>  <composite z-score>
0.394

$$$$
>  <Molecule>
CCCCC=C[C@@H](NC(=O)c1ccc(-c2ccccc2)cc1)c1ccccc1

>  <composite z-score>
1.19

$$$$
>  <Molecule>
Cc1ccc(S[C@]2(C(=O)NCCCN(C)C)CC(=O)N(C3CCCCC3)[C@@H]2c2ccc(CO)cc2)cc1

>  <composite z-score>
-0.612

$$$$
>  <Molecule>
COc1ccccc1CN1C(=O)c2ccccc2[C@@]2(Cc3ccccc3N(CC(F)(F)F)C2=O)[C@@H]1c1ccc(CO)cc1

>  <composite z-score>
0.232

$$$$
>  <Molecule>
OCC1CC(c2ccccc2)=NO1 (stereo not given)

>  <composite z-score>
-0.0937

$$$$
>  <Molecule>
C=CCC(OC(C)=O)[C@@H]1[C@@H](N(Cc2ccc(-c3cccc(C(F)(F)F)c3)o2)C(=O)c2ccc(C)cc2)c2cc(OCCCO)ccc2N1C(=O)c1ccc2ccccc2c1 (stereo not given in full)

>  <composite z-score>
-0.207

$$$$
>  <Molecule>
COc1ccccc1CN1C(=O)c2ccccc2[C@](Cc2ccccc2I)(C(=O)NCC(F)(F)F)[C@@H]1c1ccc(CO)cc1

>  <composite z-score>
1.24

$$$$
>  <Molecule>
COCC1=C2[C@@H](CCc3ccccc3)OB(O)C[C@@H]2[C@@H]2C(=O)C=CC(=O)[C@@H]2C1

>  <composite z-score>
0.736

$$$$
>  <Molecule>
COC(=O)c1c(CC[C@@H](CO)NC(=O)N[C@H](Cn2cc(C3(O)CCCCC3)nn2)C(C)C)oc(C(C)=O)c1C(=O)OC

>  <composite z-score>
0.737

$$$$
>  <Molecule>
Cc1cc(C)cc(N2C(=O)CSC2c2cccc([N+](=O)[O-])c2)c1 (stereo not given)

>  <composite z-score>
1.22

$$$$
>  <Molecule>
CCOC(=O)[C@H]1[C@@H]2C(=O)N3CCC[C@H]3[C@H](O[Si](C(C)C)(C(C)C)C(C)C)[C@H]2C=C2CCN(S(=O)(=O)c3ccc(C)cc3)C[C@H]21

>  <composite z-score>
0.837

$$$$
>  <Molecule>
CN1C(=O)C2C=CC(C(O)COCc3ccccc3)N(N(c3ccccc3)c3ccccc3)C2C1=O (stereo not given)

>  <composite z-score>
1.19

$$$$
>  <Molecule>
COc1ccc([Si](C)(C)[C@@H]2[C@@H](CC(=O)N(CCO)Cc3ccccc3)O[C@]3(C(=O)N(Cc4cccc(N5CCOC5=O)c4)c4ccccc43)[C@H]2C)cc1

>  <composite z-score>
1.13

$$$$
>  <Molecule>
[N-]=[N+]=Nc1ccccc1C[C@]1(C(N)=O)N=C(c2ccc(OCCCO)cc2)O[C@H]1c1ccccc1N=[N+]=[N-]

>  <composite z-score>
1.21

$$$$
>  <Molecule>
COc1ccc(C#Cc2ccc3c(c2)[C@]2(C(=O)N3)[C@H](c3ccc(O)cc3)N3[C@H](c4ccccc4)[C@H](c4ccccc4)OC(=O)[C@H]3[C@@H]2C(=O)O)cc1

>  <composite z-score>
1.06

$$$$
>  <Molecule>
CC1=C([C@H](O)CCc2ccccc2)[C@H](CO)[C@@H]2C(=O)N(C)C(=O)[C@@H]2C1

>  <composite z-score>
-0.183

$$$$
>  <Molecule>
COC(=O)c1c2oc(c1C(=O)OC)C(=O)N(C)Cc1cn(nn1)C[C@H](Cc1ccccc1)NC(=O)N[C@H](CO)CC2

>  <composite z-score>
-1.52

$$$$
>  <Molecule>
CCCC[C@@H]1C[C@H]1[C@@H](NC(=O)Cc1ccccc1)c1ccc(-c2ccccc2)cc1

>  <composite z-score>
1.12

$$$$
>  <Molecule>
CN1C(=O)C2C=CC(C(O)c3cccc(O)c3)N(Nc3ccccc3)C2C1=O (stereo not given)

>  <composite z-score>
0.545

$$$$
>  <Molecule>
C=CCN1C(=O)[C@@]2(CCS(=O)(=O)c3ccccc3)N=C(c3ccc(OCCCO)cc3)O[C@H]2c2ccccc21

>  <composite z-score>
1.25

$$$$

Hey, just so you know, these numbers are from PubChem BioAssay.
